Just for reference, PubChem BioAssay (NCI) is where these values come from.

Tested on: HOP-92 NSCLC
ASSAY REMARKS: NCI tumour cell line growth inhibition, 48 h; in the data active means GI50 below about 0.43 µM; inactive means the rest
Give your call using only these classes: true = active, false = inactive

COMPOUND: O=C1OCC2=C1C(c1cccc(C(F)(F)F)c1)c1cc3c(cc1N2CCO)OCCO3 (stereo not given)
CLASS LABEL: false

Req: Hi team, can someone confirm the assay call for `CN1CCN(CCCOc2ccc3nc(Nc4ccc(F)c(F)c4)ccc3c2)CC1` ?
Resp: false

Req: Recorded test call requested for `COc1cc(Cc2c(C)cc(OC)c3[nH]c4ccccc4c23)cc2c1[nH]c1ccccc12`
Resp: false

Req: Per the records of this test, what outcome belongs to `CCN(CC)CCCNCc1cc(-c2ccccc2)nc2cc(Cl)ccc12` ?
Resp: false

Req: Query: recorded result category for `O=C(O)COc1ccc(OCC(=O)O)cc1` in this test
Resp: true

Req: Recorded test outcome, item CC12OC(C(=O)C13CC3)C1C(=O)c3c(O)ccc(O)c3C(=O)C12 (stereo not given)
Resp: false

---

System: MDA-MB-435
API: response.call in active, inactive

COMPOUND: CN(C)CCN1C(=O)c2cccc3c(/C=C/CN4C(=O)c5cccc6cccc(c56)C4=O)ccc(c23)C1=O
CLASS LABEL: inactive

Req: Hi, sorry to bother you, what did the test record for CC12CCC(=O)C(O1)C1C(=O)c3ccc4c(ccc5ccccc54)c3C(=O)C12 (centres undefined) ?
Resp: inactive

Req: Recorded test call requested for `CN1CCN(CCCOc2ccc3nc(Nc4ccc(F)c(F)c4)ccc3c2)CC1`
Resp: inactive

Req: Can you look up the reported call for `O=C1NC(=O)C(c2cccc(Cl)c2)=C1Nc1ccc(Cl)c(C(=O)O)c1` for me?
Resp: inactive

Req: Answer briefly: the call reported for `CCC[CH2][Sn]([CH2]CCC)([CH2]CCC)/[C](=C/[Si](C)(C)c1ccccc1)c1ccc2c(c1)OCO2` in this assay.
Resp: inactive

---

The molecules listed here are annotated with their TGI.
Tested on: TK-10 renal
ASSAY REMARKS: NCI tumour cell line growth inhibition, 48 h

Req: What does the data say about its TGI? Entry: Cc1ccc(S(=O)(=O)OCCC2CN(C(=O)OCc3ccccc3)C(C)(C)O2)cc1 (stereo unspecified)
Resp: > 100 µM

Req: I would be grateful if you could share the reported TGI for COc1cccc2c1OC1c3ccccc3OCC1(O)C2 (stereo unspecified) .
Resp: > 100 µM

Req: // TGI lookup, key: CC12OC(C(=O)C13CC3)C1C(=O)c3c(O)ccc(O)c3C(=O)C12 (stereo unspecified)
Resp: 35.2 µM

Req: Fill in the blank: the reported TGI of `COc1ccc(OC)c2c(C)ccnc12` is ____.
Resp: > 100 µM

Req: TGI for COC(=O)/C(C#N)=C1\CCC(OC)N1C (stereo unspecified) ?
Resp: > 100 µM

---

Below: a set of entries, each annotated with reported TGI.
System: MCF7 breast
ASSAY REMARKS: NCI tumour cell line growth inhibition, 48 h

# example entries with known answers
COMPOUND: COc1ccc2c(c1O)[C@@]13CCCC=C1[C@@H](C2)[N+](C)(C)CC3
STUDY TARGET: MCF7 breast
MEASUREMENT LABEL: TGI
RECORDED RESULT: > 100 µM

COMPOUND: CC(C)[P+](c1ccccc1)(c1ccccc1)c1ccccc1
STUDY TARGET: MCF7 breast
MEASUREMENT LABEL: TGI
RECORDED RESULT: > 100 µM

COMPOUND: N#CC1=C(N)NC(N2CCOCC2)=NC12Nc1ccccc1O2 (centres undefined)
STUDY TARGET: MCF7 breast
MEASUREMENT LABEL: TGI
RECORDED RESULT: 64.2 µM

COMPOUND: Oc1ccc2ccccc2c1OCc1nnc(CCCCCCCCc2nnc(COc3c(O)ccc4ccccc34)n2Nc2ccccc2)n1Nc1ccccc1
STUDY TARGET: MCF7 breast
MEASUREMENT LABEL: TGI
RECORDED RESULT: > 100 µM

COMPOUND: COc1cc(Cl)c(CC(=O)c2c[nH]c3ccccc23)cc1OC
STUDY TARGET: MCF7 breast
MEASUREMENT LABEL: TGI
RECORDED RESULT: > 100 µM

COMPOUND: O=C1CS/C(=N/S(=O)(=O)c2ccc(N3N=C4c5ccccc5CC4C3c3cccs3)cc2)N1C(=O)c1ccccc1 (centres undefined)
STUDY TARGET: MCF7 breast
MEASUREMENT LABEL: TGI
RECORDED RESULT: > 100 µM

Req: Entry `Clc1ccc(-c2nn3c(COc4cccc(OCc5nnc6sc(-c7ccc(Cl)cc7)nn56)c4)nnc3s2)cc1` : reported TGI = ?
Resp: 27.2 µM

Req: Which TGI is listed for `O=C(O)COc1ccc(OCC(=O)O)cc1` ?
Resp: 10.7 µM

Req: Which value of TGI has been reported for CCOC(=O)C1CCC(=O)N1C(=O)c1cccc(Cl)c1 (centres undefined) in the records?
Resp: > 100 µM

Req: Could you share which TGI value was measured for `CN1CCN(C(=O)c2ccc(NC(=O)Nc3ccc(-c4nc(N5CCOCC5)c5cccn5n4)cc3)cc2)CC1` ?
Resp: 2.73 µM
